Test system: TLR1 TMD (functional ToxR chimera)
assayName: Dominant-negative (heterotypic) ToxR assay, TLR1 as dominant phenotype
Format: cell-based
conditionParameters: Miller units normalized to poly-Leu* = 1 and corrected for expression, lower = stronger interaction, N in table
No end group written: not given here.
Recorded measurements of Mean TLR1-TMD* heterotypic interaction (ToxR signal), one per entry
No unit in the answer, please; the number alone is enough.

• TLR10*: TLR10 TMD chimera with nonfunctional ToxR* domain (negative phenotype) (GNRASALLIVTIVVIMLVLGLAVAFCCLGSLIN; cysteine pairing not given here; also: fused to non-functional ToxR* (S87H) and maltose binding protein, ends not given here) = 0.3608
• TLR1*: TLR1 TMD chimera with nonfunctional ToxR* domain (negative phenotype) (GNRASITLLIVTIVATMLVLAVTVTSLCSYLGSLIN; also: fused to non-functional ToxR* (S87H) and maltose binding protein, ends not given here) = 0.3722

Please look at the following substance next.
Check TLR1 TMD (functional ToxR chimera) data and give Mean TLR1-TMD* heterotypic interaction (ToxR signal) for TLR2*: TLR2 TMD chimera with nonfunctional ToxR* domain (negative phenotype) (GNRASALVSGMCCALFLLILLTGVLCGSLIN; cysteine pairing not given here; also: fused to non-functional ToxR* (S87H) and maltose binding protein, ends not given here) . 0.3243
